# Tested target: recombinant human mPGES-1 (Homo sapiens)
# Construct: made in house; host or cells: Rosetta E. coli (membrane/microsome fraction)
# Sequence (O14684 1-152): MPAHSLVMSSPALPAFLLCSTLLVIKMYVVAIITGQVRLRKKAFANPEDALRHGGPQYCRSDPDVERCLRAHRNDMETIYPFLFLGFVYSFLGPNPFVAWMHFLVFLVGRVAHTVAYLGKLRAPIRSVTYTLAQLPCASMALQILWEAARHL
# Assay remarks: Assay A: mPGES-1 enzyme assay (HTRF detection of PGE2)
# Assay type: biochemical
# Stated conditions: biological assay A; microsomes from E. coli expressing recombinant human mPGES-1; read-out: mPGES-1 inhibitory effect IC50
pIC50: −log10 of the molar value.
Property label: pIC50

These solved cases illustrate the format of a correct answer.
Cn1c(Nc2cc(CNS(=O)(=O)C(C)(C)C)ccc2C(F)(F)F)nc2cc(Cl)c(N3CCC(C(F)(F)F)CC3)cc21 [Example 110] ... 8.82
O=C(NCc1ccc(Cl)c(Nc2nc3cc(Cl)c(N4CCC(C(F)(F)F)CC4)cc3n2CC(F)(F)F)c1)C1(C(F)(F)F)CC1 [Example 89] ... 8.21
CC(C)(C)C(=O)NCc1ccc(Cl)c(Nc2nc3cc(Cl)c(N4CCC5(CC5)C4)cc3[nH]2)c1 [Example 4] ... 7.62

[a] Cn1c(Nc2cc(CNC(=O)C3(C(F)(F)F)CC3)ccc2F)nc2cc(Cl)c(N3CCC(C(F)(F)F)CC3)cc21 [Example 111]
[b] Cn1c(Nc2cc(CNC(=O)C3(C(F)(F)F)CC3)ccc2Cl)nc2cc(Cl)c(N3CCC(c4ccccc4)CC3)cc21 [Example 76]
Qu. Which entry has a larger number for pIC50, a or b ? Mark your selection by writing its label.
Ans. b
(b: 8.51, a: 7.72)
